target: Protein cereblon/Androgen receptor (Homo sapiens, UniProt P10275+Q96SW2); assay: Protac activity at CRBN/AR in human LNCaP cells assessed as AR degradation at 1 uM by Western blotting analysis relative to control; format: cell-based
Sequence (P10275 whole entry, looked up): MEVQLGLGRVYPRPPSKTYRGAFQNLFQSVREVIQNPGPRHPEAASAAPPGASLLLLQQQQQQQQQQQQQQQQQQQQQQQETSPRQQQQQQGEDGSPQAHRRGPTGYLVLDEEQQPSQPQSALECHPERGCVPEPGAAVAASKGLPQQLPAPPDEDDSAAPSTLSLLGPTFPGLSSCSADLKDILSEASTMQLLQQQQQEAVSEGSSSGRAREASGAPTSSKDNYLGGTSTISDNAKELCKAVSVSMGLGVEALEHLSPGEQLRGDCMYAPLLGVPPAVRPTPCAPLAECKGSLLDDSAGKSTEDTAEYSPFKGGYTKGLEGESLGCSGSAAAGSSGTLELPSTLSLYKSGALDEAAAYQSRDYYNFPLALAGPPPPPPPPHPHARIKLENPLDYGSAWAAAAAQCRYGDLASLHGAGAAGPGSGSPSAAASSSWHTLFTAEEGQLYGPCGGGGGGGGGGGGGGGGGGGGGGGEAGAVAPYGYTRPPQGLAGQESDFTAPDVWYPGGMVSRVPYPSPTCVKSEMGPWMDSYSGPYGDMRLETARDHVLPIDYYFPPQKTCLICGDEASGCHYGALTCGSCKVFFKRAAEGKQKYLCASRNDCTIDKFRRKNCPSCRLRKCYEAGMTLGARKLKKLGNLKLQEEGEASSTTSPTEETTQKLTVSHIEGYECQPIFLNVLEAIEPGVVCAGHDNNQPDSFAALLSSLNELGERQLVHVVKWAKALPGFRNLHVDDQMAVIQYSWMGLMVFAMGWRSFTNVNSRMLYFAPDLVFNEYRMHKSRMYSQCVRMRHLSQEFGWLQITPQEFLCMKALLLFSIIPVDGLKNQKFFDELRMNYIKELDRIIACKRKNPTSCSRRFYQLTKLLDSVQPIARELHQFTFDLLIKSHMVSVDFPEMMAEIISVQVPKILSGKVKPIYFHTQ
Sequence (Q96SW2 whole entry, looked up): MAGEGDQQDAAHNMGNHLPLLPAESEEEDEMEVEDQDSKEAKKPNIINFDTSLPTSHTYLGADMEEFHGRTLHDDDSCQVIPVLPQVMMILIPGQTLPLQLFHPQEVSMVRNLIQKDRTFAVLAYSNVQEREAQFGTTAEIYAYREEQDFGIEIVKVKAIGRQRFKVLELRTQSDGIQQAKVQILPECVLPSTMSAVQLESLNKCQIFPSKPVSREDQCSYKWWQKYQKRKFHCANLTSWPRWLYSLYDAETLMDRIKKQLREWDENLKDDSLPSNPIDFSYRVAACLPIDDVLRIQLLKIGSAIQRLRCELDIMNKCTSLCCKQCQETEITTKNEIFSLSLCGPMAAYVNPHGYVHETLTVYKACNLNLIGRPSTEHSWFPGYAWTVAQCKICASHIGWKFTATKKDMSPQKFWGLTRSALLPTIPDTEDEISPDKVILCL
Kindly supply the reported Activity values for the records listed here.
Dear colleague, please return just the value in %, with no unit written.

Q: // fetch Protein cereblon/Androgen receptor (Homo sapiens, UniProt P10275+Q96SW2) Activity for CC1(C)[C@H](NC(=O)c2ccc(N3CCN(CCOC4CCN(C(=O)CNc5ccc6nnn(C7CCC(=O)NC7=O)c(=O)c6c5)CC4)CC3)cc2)C(C)(C)[C@H]1Oc1ccc(C#N)c(Cl)c1 (some centres undefined)
Ans: 95

Q: What do we get for CC1(C)[C@H](NC(=O)c2ccc(N3CCN(C4CC5(CCN(c6ccc7nnn(C8CCC(=O)NC8=O)c(=O)c7c6)CC5)C4)CC3)cc2)C(C)(C)[C@H]1Oc1ccc(C#N)c(Cl)c1 (some centres undefined) ?
Ans: 95

Q: Then what about the compound CC1(C)[C@H](NC(=O)c2ccc(N3CCN(CC4CCN(c5cccc6nnn(C7CCC(=O)NC7=O)c(=O)c56)CC4)CC3)cc2)C(C)(C)[C@H]1Oc1ccc(C#N)c(Cl)c1 (some centres undefined) ?
Ans: 77

Q: Then what about the compound CC1(C)[C@H](NC(=O)c2ccc(N3CCN(C4CC5(CCN(C(=O)COc6ccc7nnn(C8CCC(=O)NC8=O)c(=O)c7c6)CC5)C4)CC3)cc2)C(C)(C)[C@H]1Oc1ccc(C#N)c(Cl)c1 (some centres undefined) ?
Ans: 77

====

Exercise: for every item that follows, state its recorded remaining at 0.5 h, 1 µM.
experiment: Metabolic stability in mouse liver microsomes assessed as compound remaining at 1 uM after 30 mins in presence of NADPH-regenerating system; format: ADME, Microsome; conditions: read-out: Stabilty
Value expressed in %; do not type the unit.

Q: Form field: reported remaining at 0.5 h, 1 µM of CC1(C)[C@H](NC(=O)c2ccc(N3CCN(CCC4CCN(c5ccc6nnn(C7CCC(=O)NC7=O)c(=O)c6c5)CC4)CC3)cc2)C(C)(C)[C@H]1Oc1ccc(C#N)c(Cl)c1 (stereo partly specified)
Ans: 86.7

Q: Consider next the molecule CC1(C)[C@H](NC(=O)c2ccc(N3CCN(CC4CCN(C(=O)C5CCN(c6ccc7nnn(C8CCC(=O)NC8=O)c(=O)c7c6)CC5)CC4)CC3)cc2)C(C)(C)[C@H]1Oc1ccc(C#N)c(Cl)c1 (stereo partly specified) in the same way.
Ans: 74.3

Q: CC1(C)[C@H](NC(=O)c2ccc(N3CCN(C4CC5(CCN(C(=O)CNc6ccc7nnn(C8CCC(=O)NC8=O)c(=O)c7c6)CC5)C4)CC3)cc2)C(C)(C)[C@H]1Oc1ccc(C#N)c(Cl)c1 (stereo partly specified) ?
Ans: 85.5

Q: Please answer likewise for CC1(C)[C@H](NC(=O)c2ccc(N3CCN(C4CC5(CCN(C(=O)C6CCN(c7ccc8nnn(C9CCC(=O)NC9=O)c(=O)c8c7)CC6)CC5)C4)CC3)cc2)C(C)(C)[C@H]1Oc1ccc(C#N)c(Cl)c1 (stereo partly specified)
Ans: 96

Q: Next molecule up: CC1(C)[C@H](NC(=O)c2ccc(N3CCN(CCOC4CCN(C(=O)C5CN(c6ccc7nnn(C8CCC(=O)NC8=O)c(=O)c7c6)C5)CC4)CC3)cc2)C(C)(C)[C@H]1Oc1ccc(C#N)c(Cl)c1 (stereo partly specified)
Ans: 92.6

Q: Next: CC1(C)[C@H](NC(=O)c2ccc(N3CCN(CCC4CCN(C(=O)CNc5ccc6nnn(C7CCC(=O)NC7=O)c(=O)c6c5)CC4)CC3)cc2)C(C)(C)[C@H]1Oc1ccc(C#N)c(Cl)c1 (stereo partly specified)
Ans: 0.56

Q: Request: CC1(C)[C@H](NC(=O)c2ccc(N3CCN(CCC4CCN(C(=O)COc5ccc6nnn(C7CCC(=O)NC7=O)c(=O)c6c5)CC4)CC3)cc2)C(C)(C)[C@H]1Oc1ccc(C#N)c(Cl)c1 (stereo partly specified)
Ans: 2.98

Q: Cool, now CC1(C)[C@H](NC(=O)c2ccc(N3CCN(CCC4CCN(C(=O)C5CN(c6ccc7nnn(C8CCC(=O)NC8=O)c(=O)c7c6)C5)CC4)CC3)cc2)C(C)(C)[C@H]1Oc1ccc(C#N)c(Cl)c1 (stereo partly specified)
Ans: 92.9

Q: Also, CC1(C)[C@H](NC(=O)c2ccc(N3CCN(CCOC4CCN(C(=O)CNc5ccc6nnn(C7CCC(=O)NC7=O)c(=O)c6c5)CC4)CC3)cc2)C(C)(C)[C@H]1Oc1ccc(C#N)c(Cl)c1 (stereo partly specified) please.
Ans: 31.2

Q: # iterate: CC1(C)[C@H](NC(=O)c2ccc(N3CCN(C4CC5(CCN(C(=O)COc6ccc7nnn(C8CCC(=O)NC8=O)c(=O)c7c6)CC5)C4)CC3)cc2)C(C)(C)[C@H]1Oc1ccc(C#N)c(Cl)c1 (stereo partly specified)
Ans: 62.8

Q: Also, CC1(C)[C@H](NC(=O)c2ccc(N3CCN(CC4CCN(c5ccc6nnn(C7CCC(=O)NC7=O)c(=O)c6c5)CC4)CC3)cc2)C(C)(C)[C@H]1Oc1ccc(C#N)c(Cl)c1 (stereo partly specified) please.
Ans: 71.7

Q: Repeat for the following molecule: O=C1CC2(CCCC2)CC(=O)N1CCCCN1CCN(c2ncccn2)CC1 [BUSPIRONE]
Ans: 0.03

Q: Request: CC1(C)[C@H](NC(=O)c2ccc(N3CCN(CCOC4CCN(C(=O)C5CCN(c6ccc7nnn(C8CCC(=O)NC8=O)c(=O)c7c6)CC5)CC4)CC3)cc2)C(C)(C)[C@H]1Oc1ccc(C#N)c(Cl)c1 (stereo partly specified)
Ans: 78.4

Q: Proceed to CC1(C)[C@H](NC(=O)c2ccc(N3CCN(CCC4CCN(C(=O)C5CCN(c6ccc7nnn(C8CCC(=O)NC8=O)c(=O)c7c6)CC5)CC4)CC3)cc2)C(C)(C)[C@H]1Oc1ccc(C#N)c(Cl)c1 (stereo partly specified)
Ans: 93.7

Q: What do you have for CC1(C)[C@H](NC(=O)c2ccc(N3CCN(CC4CCN(C(=O)C5CN(c6ccc7nnn(C8CCC(=O)NC8=O)c(=O)c7c6)C5)CC4)CC3)cc2)C(C)(C)[C@H]1Oc1ccc(C#N)c(Cl)c1 (stereo partly specified) ?
Ans: 92.8

Q: Then CC1(C)[C@H](NC(=O)c2ccc(N3CCN(CCOC4CCN(c5ccc6nnn(C7CCC(=O)NC7=O)c(=O)c6c5)CC4)CC3)cc2)C(C)(C)[C@H]1Oc1ccc(C#N)c(Cl)c1 (stereo partly specified) ?
Ans: 86.8

====

assay: Cmax in ICR mouse at 30 mg/kg, po by LC-MS/MS analysis; format: ADME, organism-based; set-up: route oral, dose 30 mg/kg; settings: ICR, in vivo, read-out: Cmax
Can you tell me Cmax for the items I'm about to list?
Please reply with the bare figure in ng/mL and do not write the unit itself.

Q: Could you tell me which Cmax is on file for CC1(C)[C@H](NC(=O)c2ccc(N3CCN(CCOC4CCN(c5ccc6nnn(C7CCC(=O)NC7=O)c(=O)c6c5)CC4)CC3)cc2)C(C)(C)[C@H]1Oc1ccc(C#N)c(Cl)c1 (some centres not stated) ?
Ans: 280

Q: How about this compound: CC1(C)[C@H](NC(=O)c2ccc(N3CCN(C4CC5(CCN(C(=O)C6CCN(c7ccc8nnn(C9CCC(=O)NC9=O)c(=O)c8c7)CC6)CC5)C4)CC3)cc2)C(C)(C)[C@H]1Oc1ccc(C#N)c(Cl)c1 (some centres not stated)
Ans: 110

====

biological target: Protein cereblon/Androgen receptor (Homo sapiens, UniProt P10275+Q96SW2); assay: Protac activity at CRBN/AR in human LNCaP cells assessed as AR degradation at 0.1 uM by western blotting analysis relative to control; format: cell-based
just bin them by Activity: lo = under 20%, mid = from 20% up to 70%, hi = 70% and over

Q: Bin this entry: CC1(C)[C@H](NC(=O)c2ccc(N3CCN(CC4CCN(c5ccc6c(=O)n(C7CCC(=O)NC7=O)nnc6c5)CC4)CC3)cc2)C(C)(C)[C@H]1Oc1ccc(C#N)c(Cl)c1 (stereo partly specified)
Ans: mid

Q: Also need CC1(C)[C@H](NC(=O)c2ccc(N3CCN(CCC4CCN(C(=O)COc5ccc6nnn(C7CCC(=O)NC7=O)c(=O)c6c5)CC4)CC3)cc2)C(C)(C)[C@H]1Oc1ccc(C#N)c(Cl)c1 (stereo partly specified) , thanks.
Ans: lo

Q: Proceed to CC1(C)[C@H](NC(=O)c2ccc(N3CCN(C4CC5(CCN(c6ccc7nnn(C8CCC(=O)NC8=O)c(=O)c7c6)CC5)C4)CC3)cc2)C(C)(C)[C@H]1Oc1ccc(C#N)c(Cl)c1 (stereo partly specified)
Ans: lo

Q: What would you report for CC1(C)[C@H](NC(=O)c2ccc(N3CCN(CCC4CCN(C(=O)C5CCN(c6ccc7nnn(C8CCC(=O)NC8=O)c(=O)c7c6)CC5)CC4)CC3)cc2)C(C)(C)[C@H]1Oc1ccc(C#N)c(Cl)c1 (stereo partly specified) ?
Ans: hi

Q: What do we get for CC1(C)[C@H](NC(=O)c2ccc(N3CCN(CCC4CCN(c5cccc6nnn(C7CCC(=O)NC7=O)c(=O)c56)CC4)CC3)cc2)C(C)(C)[C@H]1Oc1ccc(C#N)c(Cl)c1 (stereo partly specified) ?
Ans: lo

Q: Queued: CC1(C)[C@H](NC(=O)c2ccc(N3CCN(CCOC4CCN(C(=O)COc5ccc6nnn(C7CCC(=O)NC7=O)c(=O)c6c5)CC4)CC3)cc2)C(C)(C)[C@H]1Oc1ccc(C#N)c(Cl)c1 (stereo partly specified)
Ans: hi

Q: What do you have for CC1(C)[C@H](NC(=O)c2ccc(N3CCN(C4CC5(CCN(C(=O)C6CN(c7ccc8nnn(C9CCC(=O)NC9=O)c(=O)c8c7)C6)CC5)C4)CC3)cc2)C(C)(C)[C@H]1Oc1ccc(C#N)c(Cl)c1 (stereo partly specified) ?
Ans: lo

Q: Cool, now CC1(C)[C@H](NC(=O)c2ccc(N3CCN(C4CC5(CCN(C(=O)COc6ccc7nnn(C8CCC(=O)NC8=O)c(=O)c7c6)CC5)C4)CC3)cc2)C(C)(C)[C@H]1Oc1ccc(C#N)c(Cl)c1 (stereo partly specified)
Ans: mid

Q: Please answer likewise for CC1(C)[C@H](NC(=O)c2ccc(N3CCN(CCC4CCN(c5ccc6nnn(C7CCC(=O)NC7=O)c(=O)c6c5)CC4)CC3)cc2)C(C)(C)[C@H]1Oc1ccc(C#N)c(Cl)c1 (stereo partly specified)
Ans: mid

Q: Again, but for CC1(C)[C@H](NC(=O)c2ccc(N3CCN(CC4CCN(c5ccc6nnn(C7CCC(=O)NC7=O)c(=O)c6c5)CC4)CC3)cc2)C(C)(C)[C@H]1Oc1ccc(C#N)c(Cl)c1 (stereo partly specified)
Ans: hi
